- test.summary: Storage stability at 40 °C
- Assay type: physicochemical
- Parameters: unit not given here
- study.conditions: 0 days elapsed
So I've got a bunch of compounds here, and I need their A.O. values.
Give bare numbers.

| compound | A.O. |
| --- | --- |
| CC(=O)OOC(=O)OCC1CCC(COC(=O)OOC(C)=O)CC1 (stereo not shown) | 9.15 |

Go through the items and report each one's A.O..
1. CCCCCCCCCCCCCCCCCCOC(=O)OOC(C)=O [acetyl peroxystearyl carbonate]
2. CC(C)(C)C1CCC(OC(=O)OOC(=O)OC2CCC(C(C)(C)C)CC2)CC1 (stereo not shown)
3. O=C(OCCOc1ccccc1)OOC(=O)OCCOc1ccccc1 [di(phenoxyethyl) peroxydicarbonate]

4.04
3.92
4.31

Numbers sourced from patent US4372877A.
